- Assay type: in vivo, human
- CONDITION DESCRIPTION: human, capillary plasma, oral, 150 mg, Cmax, Median (min, max), pwCF, ivacaftor 150mg twice daily steady state, n = 8
REPORTED ENDPOINT: Cmax (ng/mL)
State just the number; it will be interpreted in ng/mL.

Query block: Report Cmax, nothing else, for this compound: CC(C)(C)c1cc(C(C)(C)C)c(NC(=O)c2c[nH]c3ccccc3c2=O)cc1O
Result block: 552

----------
- Assay type: in vivo, human
- CONDITION DESCRIPTION: human, capillary plasma, oral, 150 mg, T1/2, Mean (SD), pwCF, ivacaftor 150mg twice daily steady state, n = 8
REPORTED ENDPOINT: half-life
Remember to put the unit after the number in your answer.

Query block: Report half-life, nothing else, for this compound: CC(C)(C)c1cc(C(C)(C)C)c(NC(=O)c2c[nH]c3ccccc3c2=O)cc1O
Result block: 7.9 h
